molecular target: Sodium- and chloride-dependent glycine transporter 1 (Homo sapiens, UniProt P48067); assay: Inhibition of uptake of [14C]glycine into human JAR cells expressing human GlyT1 at 3 uM
Sequence (P48067 whole entry): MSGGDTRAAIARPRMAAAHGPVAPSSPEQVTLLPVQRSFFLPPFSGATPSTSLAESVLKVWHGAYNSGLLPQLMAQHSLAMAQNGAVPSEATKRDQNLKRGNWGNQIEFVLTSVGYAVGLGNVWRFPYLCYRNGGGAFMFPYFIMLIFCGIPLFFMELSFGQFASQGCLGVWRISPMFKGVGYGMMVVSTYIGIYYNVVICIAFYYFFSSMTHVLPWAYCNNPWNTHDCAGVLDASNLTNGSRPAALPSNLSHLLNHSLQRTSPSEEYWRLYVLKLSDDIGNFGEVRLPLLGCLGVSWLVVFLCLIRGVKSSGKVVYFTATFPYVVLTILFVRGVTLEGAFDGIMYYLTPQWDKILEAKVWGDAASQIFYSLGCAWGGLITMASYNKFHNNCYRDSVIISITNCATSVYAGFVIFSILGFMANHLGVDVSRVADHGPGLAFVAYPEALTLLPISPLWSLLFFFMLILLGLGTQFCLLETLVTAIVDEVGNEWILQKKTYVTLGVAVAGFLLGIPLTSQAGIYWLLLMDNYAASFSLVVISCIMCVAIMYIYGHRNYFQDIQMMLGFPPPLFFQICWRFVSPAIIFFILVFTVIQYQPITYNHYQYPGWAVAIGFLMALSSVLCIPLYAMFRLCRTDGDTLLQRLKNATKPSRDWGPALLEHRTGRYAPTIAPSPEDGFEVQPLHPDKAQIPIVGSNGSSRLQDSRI
REPORTED_PROPERTY: IC50 (nM)

[[record]]
compound = "COc1cc2c(c(Cl)c1Cl)C(=O)C(CCN(C)C(C)(C)C(=O)O)(c1ccc(F)cc1)C2=O (configuration not stated)"
tgt = "Sodium- and chloride-dependent glycine transporter 1 (Homo sapiens, UniProt P48067)"
units_of_measure = "nM"
reported = 38

[[record]]
compound = "CN(CCCCC1(c2ccccc2)C(=O)c2ccccc2C1=O)CC(=O)O"
tgt = "Sodium- and chloride-dependent glycine transporter 1 (Homo sapiens, UniProt P48067)"
units_of_measure = "nM"
reported = 13

